Provide the reported MES of each item.
# Test system: Mus musculus
# run-description: Minimum dose required for anticonvulsant activity when given i.p., at 4 hr in mice upon maximal electroshock seizure
# Type: functional
Expressed in mg/kg, but write only the number.

q: Lab note: need MES with Mus musculus for entry Cc1cccc(C)c1NC(=O)NN=C(Cc1ccccc1)Cc1ccccc1 , please look it up.
a: 300

q: Lab note: need MES with Mus musculus for entry Cc1cccc(C)c1NC(=O)N/N=C/c1ccccc1[N+](=O)[O-] , please look it up.
a: 300

q: Lab note: need MES with Mus musculus for entry Cc1ccc(/C=N/NC(=O)Nc2c(C)cccc2C)cc1 , please look it up.
a: 300

q: Lab note: need MES with Mus musculus for entry Cc1cccc(C)c1NC(=O)NN=C1CCCCC1 , please look it up.
a: 300

q: Lab note: need MES with Mus musculus for entry Cc1cccc(C)c1NC(=O)/N=N/c1c(O)[nH]c2ccc(Cl)cc12 , please look it up.
a: 300

q: Lab note: need MES with Mus musculus for entry Cc1cccc(C)c1NC(=O)N/N=C/c1ccc([N+](=O)[O-])cc1 , please look it up.
a: 300

q: Lab note: need MES with Mus musculus for entry O=C1NC(=O)C(c2ccccc2)(c2ccccc2)N1 [PHENYTOIN] , please look it up.
a: 30

q: Lab note: need MES with Mus musculus for entry Cc1cccc(C)c1NC(=O)/N=N/c1c(O)[nH]c2ccc(F)cc12 , please look it up.
a: 300

q: Lab note: need MES with Mus musculus for entry Cc1cccc(C)c1NC(=O)N/N=C/c1cccc([N+](=O)[O-])c1 , please look it up.
a: 300

q: Lab note: need MES with Mus musculus for entry CC(C)=NNC(=O)Nc1c(C)cccc1C , please look it up.
a: 300

q: Lab note: need MES with Mus musculus for entry C/C(=N\NC(=O)Nc1c(C)cccc1C)c1ccccc1O , please look it up.
a: 300

q: Lab note: need MES with Mus musculus for entry CC(=O)C/C(C)=N\NC(=O)Nc1c(C)cccc1C , please look it up.
a: 300

q: Lab note: need MES with Mus musculus for entry C/C(=N\NC(=O)Nc1c(C)cccc1C)c1ccc(N)cc1 , please look it up.
a: 300

q: Lab note: need MES with Mus musculus for entry NC(=O)N1c2ccccc2C=Cc2ccccc21 [CARBAMAZEPINE] , please look it up.
a: 100

q: Lab note: need MES with Mus musculus for entry COc1cc(/C=N/NC(=O)Nc2c(C)cccc2C)ccc1O , please look it up.
a: 300

q: Lab note: need MES with Mus musculus for entry CC/C(C)=N\NC(=O)Nc1c(C)cccc1C , please look it up.
a: 300

q: Lab note: need MES with Mus musculus for entry Cc1cccc(C)c1NC(=O)N/N=C/c1ccccc1Cl , please look it up.
a: 300

q: Lab note: need MES with Mus musculus for entry C/C(=N\NC(=O)Nc1c(C)cccc1C)c1ccccc1 , please look it up.
a: 300

q: Lab note: need MES with Mus musculus for entry Cc1cccc(C)c1NC(=O)N/N=C/c1ccc(N(C)C)cc1 , please look it up.
a: 300

q: Lab note: need MES with Mus musculus for entry Cc1cccc(C)c1NC(=O)NN=C1CCCC1 , please look it up.
a: 300

q: Lab note: need MES with Mus musculus for entry Cc1cccc(C)c1NC(=O)N/N=C/c1ccccc1 , please look it up.
a: 100

q: Lab note: need MES with Mus musculus for entry Cc1cccc(C)c1NC(=O)/N=N/c1c(O)[nH]c2ccc(Br)cc12 , please look it up.
a: 300

q: Lab note: need MES with Mus musculus for entry Cc1cccc(C)c1NC(=O)/N=N/c1c(O)[nH]c2ccccc12 , please look it up.
a: 300

q: Lab note: need MES with Mus musculus for entry C/C(CC(C)C)=N/NC(=O)Nc1c(C)cccc1C , please look it up.
a: 300

---

# Test system: Mus musculus
# run-description: Minimum dose required for anticonvulsant activity when given i.p., at 0.5 hr in mice upon subcutaneous pentylenetetrazole seizure
# Format: functional
measured-quantity: PTZ seizure (mg/kg)
Expressed in mg/kg, but write only the number.

q: # get_value(readout='PTZ seizure', item= Cc1cccc(C)c1NC(=O)/N=N/c1c(O)[nH]c2ccc(F)cc12 )
a: 300

q: # get_value(readout='PTZ seizure', item= Cc1cccc(C)c1NC(=O)N/N=C/c1ccccc1O )
a: 300

q: # get_value(readout='PTZ seizure', item= Cc1cccc(C)c1NC(=O)N/N=C/c1ccc(N(C)C)cc1 )
a: 300

q: # get_value(readout='PTZ seizure', item= Cc1cccc(C)c1NC(=O)N/N=C/c1ccc([N+](=O)[O-])cc1 )
a: 300

q: # get_value(readout='PTZ seizure', item= Cc1cccc(C)c1NC(=O)NN=C1CCCC1 )
a: 300

q: # get_value(readout='PTZ seizure', item= Cc1cccc(C)c1NC(=O)N/N=C/c1ccccc1 )
a: 300

q: # get_value(readout='PTZ seizure', item= C/C(=N\NC(=O)Nc1c(C)cccc1C)c1ccc([N+](=O)[O-])cc1 )
a: 300

q: # get_value(readout='PTZ seizure', item= Cc1cccc(C)c1NC(=O)N/N=C/c1cccc([N+](=O)[O-])c1 )
a: 300

q: # get_value(readout='PTZ seizure', item= Cc1cccc(C)c1NC(=O)/N=N/c1c(O)[nH]c2ccc(Cl)cc12 )
a: 300

q: # get_value(readout='PTZ seizure', item= NC(=O)N1c2ccccc2C=Cc2ccccc21 [CARBAMAZEPINE] )
a: 100

q: # get_value(readout='PTZ seizure', item= COc1ccc(/C=N/NC(=O)Nc2c(C)cccc2C)cc1 )
a: 300

q: # get_value(readout='PTZ seizure', item= Cc1ccc(/C=N/NC(=O)Nc2c(C)cccc2C)cc1 )
a: 300

q: # get_value(readout='PTZ seizure', item= C/C(=N\NC(=O)Nc1c(C)cccc1C)c1ccccc1O )
a: 300

q: # get_value(readout='PTZ seizure', item= C/C(=N\NC(=O)Nc1c(C)cccc1C)c1ccc(N)cc1 )
a: 300

q: # get_value(readout='PTZ seizure', item= CC(C)=NNC(=O)Nc1c(C)cccc1C )
a: 300

q: # get_value(readout='PTZ seizure', item= Cc1cccc(C)c1NC(=O)NN=C(c1ccccc1)c1ccccc1 )
a: 300

q: # get_value(readout='PTZ seizure', item= C/C(=N\NC(=O)Nc1c(C)cccc1C)c1ccc(O)cc1 )
a: 300

q: # get_value(readout='PTZ seizure', item= Cc1cccc(C)c1NC(=O)N/N=C/c1ccccc1[N+](=O)[O-] )
a: 300

q: # get_value(readout='PTZ seizure', item= Cc1cccc(C)c1NC(=O)N/N=C\c1ccco1 )
a: 300

q: # get_value(readout='PTZ seizure', item= Cc1ccc2[nH]c(O)c(/N=N/C(=O)Nc3c(C)cccc3C)c2c1 )
a: 300

q: # get_value(readout='PTZ seizure', item= CC(=O)C/C(C)=N\NC(=O)Nc1c(C)cccc1C )
a: 300

q: # get_value(readout='PTZ seizure', item= Cc1cccc(C)c1NC(=O)N/N=C/c1ccccc1Cl )
a: 300

q: # get_value(readout='PTZ seizure', item= COc1cc(/C=N/NC(=O)Nc2c(C)cccc2C)ccc1O )
a: 300

q: # get_value(readout='PTZ seizure', item= C/C(=N\NC(=O)Nc1c(C)cccc1C)c1ccccc1 )
a: 300

q: # get_value(readout='PTZ seizure', item= CC/C(C)=N\NC(=O)Nc1c(C)cccc1C )
a: 300

---

# System: Mus musculus
# run-description: Mean sleeping time evaluated for CNS study using the pentobarbital-induced narcosis model at a dose of 100 mg/Kg when given i.p., in mice (No. of animals 6)
measured-quantity: Time

q: # get_value(readout='Time', item= COc1cc(/C=N/NC(=O)Nc2c(C)cccc2C)ccc1O )
a: 68 min

q: # get_value(readout='Time', item= Cc1cccc(C)c1NC(=O)N/N=C/c1cccc([N+](=O)[O-])c1 )
a: 147 min

q: # get_value(readout='Time', item= C/C(=N\NC(=O)Nc1c(C)cccc1C)c1ccc(O)cc1 )
a: 108 min

q: # get_value(readout='Time', item= Cc1cccc(C)c1NC(=O)N/N=C/c1ccccc1[N+](=O)[O-] )
a: 141 min

q: # get_value(readout='Time', item= CCC1(c2ccccc2)C(=O)NC(=O)NC1=O )
a: 54 min

q: # get_value(readout='Time', item= CC/C(C)=N\NC(=O)Nc1c(C)cccc1C )
a: 61 min

q: # get_value(readout='Time', item= Cc1ccc(/C=N/NC(=O)Nc2c(C)cccc2C)cc1 )
a: 150 min

These measurements were taken from ChEMBL document CHEMBL1141099.
